Assay: physchem
Details: organic solvent or mixture, thermodynamic from solid, equilibrium solubility
parameter: solubility thermodynamic (µg/mL)
Numbers only, in µg/mL.

query: Look at this compound and give its reported solubility thermodynamic. Cc1nnnn1/N=C/c1ccc(O)c(C(c2ccc(O)cc2)c2cc(/C=N/n3nnnc3C)ccc2O)c1 [P-3 ethanolate]
result: 240

----------
Assay: physchem
Conditions: 25 °C, organic solvent or mixture, thermodynamic from solid
parameter: solubility (µg/mL)
Give bare numbers, in µg/mL.

query: // lookup solubility for Cc1nnnn1/N=C/c1ccc(O)c(C(c2ccc(O)cc2)c2cc(/C=N/n3nnnc3C)ccc2O)c1 [P-2 hydrate]
result: 190

----------
Test: physchem
Settings: 37 °C, water, thermodynamic from solid
parameter: solubility

query: Any idea what its solubility is? The molecule is Cc1nnnn1/N=C/c1ccc(O)c(C(c2ccc(O)cc2)c2cc(/C=N/n3nnnc3C)ccc2O)c1 [P-2 hydrate]
result: < 6 nM
